# testedSystem: p38 MAP kinase (Homo sapiens, UniProt Q16539)
# Sequence (Q16539 whole entry): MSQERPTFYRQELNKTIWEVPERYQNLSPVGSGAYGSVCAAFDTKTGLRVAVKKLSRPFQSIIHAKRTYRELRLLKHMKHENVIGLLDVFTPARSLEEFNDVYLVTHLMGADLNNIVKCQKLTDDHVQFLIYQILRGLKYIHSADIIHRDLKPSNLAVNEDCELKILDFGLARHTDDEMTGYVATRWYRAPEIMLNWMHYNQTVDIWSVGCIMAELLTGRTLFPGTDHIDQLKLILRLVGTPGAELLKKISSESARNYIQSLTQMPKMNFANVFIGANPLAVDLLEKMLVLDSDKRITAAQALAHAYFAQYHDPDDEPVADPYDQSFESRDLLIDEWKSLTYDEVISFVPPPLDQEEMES
# testDetails: p38 (MAP) kinase in vitro assay (transfer of γ-33P-phosphate from ATP to Myelin Basic Protein)
# recordedConditions: phosphorylated recombinant p38 MAP kinase, MBP substrate, γ-33P-ATP, 30° C.
pIC50: −log10 of the molar value.
readoutType: pIC50

Notebook: Fc1ccc(Oc2ncc3c(-c4ccccc4Cl)n[nH]c3n2)c(F)c1 [Compound 3] , pIC50 read as ~8.00

====

readoutType: melting point

Example entries begin here.
FC(F)(F)c1ccccc1Oc1ncc2c(-c3ccccc3Cl)n[nH]c2n1 [Compound 13]: 55.3 to 56.1 °C
Clc1ccccc1Oc1ncc2c(-c3cccs3)n[nH]c2n1 [Compound 22]: 221.3 to 223.1 °C
COc1ccccc1-c1n[nH]c2cc(Oc3ccc(F)cc3F)cnc12 [Compound 98]: 143.2 to 144.9 °C

Notebook: COc1ccc(F)c(-c2n[nH]c3nc(Oc4ccc(F)cc4F)ncc23)c1 [Compound 64] , melting point read as 177.6 to 183.2 °C
